The measured values listed here are drawn from ChEMBL document CHEMBL4196006.

Biological target: Pteridine reductase, putative (Trypanosoma brucei) (UniProt Q581W1)
Sequence (whole entry): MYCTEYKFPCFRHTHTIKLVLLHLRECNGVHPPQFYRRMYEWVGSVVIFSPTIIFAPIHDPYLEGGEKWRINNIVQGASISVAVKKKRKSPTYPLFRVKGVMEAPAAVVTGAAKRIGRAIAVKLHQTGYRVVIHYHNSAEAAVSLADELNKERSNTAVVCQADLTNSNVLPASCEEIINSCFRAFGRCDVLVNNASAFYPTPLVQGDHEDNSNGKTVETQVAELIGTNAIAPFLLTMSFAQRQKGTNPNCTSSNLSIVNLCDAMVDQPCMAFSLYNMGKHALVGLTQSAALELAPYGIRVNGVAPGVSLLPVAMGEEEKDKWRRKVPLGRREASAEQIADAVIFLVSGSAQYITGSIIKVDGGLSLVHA
Assay: Inhibition of Trypanosoma brucei PTR1 at 50 uM using H2B as substrate in presence of NADPH by photometric analysis relative to control
Activity calls are given as the source filed them. The rule behind the calls is not given here.
attribute measured: inhibition

Solved cases below.
NC(=S)N/N=C/c1ccc(-c2ccccc2)cc1: inactive
COc1cccc(OC)c1/C=N/NC(N)=S: 4.77%
COc1cc(/C=N/NC(N)=S)ccc1O: 9.78%
N/C(S)=N/N=C/c1ccc([N+](=O)[O-])cc1: 3.76%

Enquiry: What value of inhibition on Pteridine reductase, putative (Trypanosoma brucei) (UniProt Q581W1) does NC(=S)N/N=C/c1ccc(N)cc1 have?
Return: 7.43%

Enquiry: Missing value: inhibition, Pteridine reductase, putative (Trypanosoma brucei) (UniProt Q581W1), entry NC(=S)N/N=C/c1ccc(OCc2ccc(Cl)c(Cl)c2)cc1 . Fill in?
Return: 0.36%

Enquiry: Request - read-out inhibition | tested on Pteridine reductase, putative (Trypanosoma brucei) (UniProt Q581W1) | compound N/C(S)=N/N=C/c1ccc(Cl)c(Cl)c1
Return: inactive
